Hey, just so you know, these numbers are from the NIST ThermoML archive (doi:10.1016/j.jct.2011.02.012).

test description: activity coefficient (dimensionless); of the first substance listed, at infinite dilution; xn = mol fraction of the nth substance listed
protocol conditions: 338.15 K; Liquid; Chromatography; x1 = 0
observable: activity coefficient
A bare number is all that is needed in reply.

INSERT INTO measurements (compound, readout_number) VALUES
  ('CCOCC [diethyl ether] + CCn1cc[n+](C)c1.N#C[B-](C#N)(C#N)C#N', 2.75),
  ('c1ccccc1 [benzene] + CCn1cc[n+](C)c1.N#C[B-](C#N)(C#N)C#N', 1.19),
  ('C1=CCCCC1 [cyclohexene] + CCn1cc[n+](C)c1.N#C[B-](C#N)(C#N)C#N', 6.17),
  ('CCO [ethanol] + CCn1cc[n+](C)c1.N#C[B-](C#N)(C#N)C#N', 1.13),
  ('C1CCOC1 [tetrahydrofuran] + CCn1cc[n+](C)c1.N#C[B-](C#N)(C#N)C#N', 0.753),
  ('C=CCCCCCC [oct-1-ene] + CCn1cc[n+](C)c1.N#C[B-](C#N)(C#N)C#N', 25.9);

Task: // lookup activity coefficient for Cc1ccc(C)cc1 [1,4-dimethylbenzene] + CCn1cc[n+](C)c1.N#C[B-](C#N)(C#N)C#N
Result: 2.5

Task: Here is the next compound: CCCOCCC [dipropyl ether] + CCn1cc[n+](C)c1.N#C[B-](C#N)(C#N)C#N
Result: 7.6

Task: Here is the next compound: CCCCCCC [heptane] + CCn1cc[n+](C)c1.N#C[B-](C#N)(C#N)C#N
Result: 36.7

Task: Here is the next compound: Cc1cccc(C)c1 [1,3-dimethylbenzene] + CCn1cc[n+](C)c1.N#C[B-](C#N)(C#N)C#N
Result: 2.61

Task: Here is the next compound: C#CCCCCC [1-heptyne] + CCn1cc[n+](C)c1.N#C[B-](C#N)(C#N)C#N
Result: 5.45

Task: Here is the next compound: C1CCCCCCC1 [cyclooctane] + CCn1cc[n+](C)c1.N#C[B-](C#N)(C#N)C#N
Result: 20.8

---

test description: activity coefficient (dimensionless); of the first substance listed, at infinite dilution; xn = mol fraction of the nth substance listed
protocol conditions: 308.15 K; Liquid; Chromatography; x1 = 0
Assign class by activity coefficient: not lower than 4 means 1.0; lower than 4 means 0.0.

Please review the entries below; each comes with its answer.
INSERT INTO results (compound, class_assignment) VALUES
  ('CCCCC [pentane] + CCn1cc[n+](C)c1.N#C[B-](C#N)(C#N)C#N', 1.0),
  ('C=CCCC [1-pentene] + CCn1cc[n+](C)c1.N#C[B-](C#N)(C#N)C#N', 1.0),
  ('CCCCC(C)=O [2-hexanone] + CCn1cc[n+](C)c1.N#C[B-](C#N)(C#N)C#N', 0.0),
  ('C=CCCCCC [1-heptene] + CCn1cc[n+](C)c1.N#C[B-](C#N)(C#N)C#N', 1.0),
  ('c1ccsc1 [thiophene] + CCn1cc[n+](C)c1.N#C[B-](C#N)(C#N)C#N', 0.0),
  ('CCCCCCCCC [nonane] + CCn1cc[n+](C)c1.N#C[B-](C#N)(C#N)C#N', 1.0);

Task: # bool: activity coefficient of C1CCCC1 [cyclopentane] + CCn1cc[n+](C)c1.N#C[B-](C#N)(C#N)C#N >= 4
Result: 1.0

Task: Here is the next compound: CCC(C)(C)OC [2-methoxy-2-methylbutane] + CCn1cc[n+](C)c1.N#C[B-](C#N)(C#N)C#N
Result: 1.0

Task: Here is the next compound: CCOCC [diethyl ether] + CCn1cc[n+](C)c1.N#C[B-](C#N)(C#N)C#N
Result: 0.0
